Biological target: T1, human cholecystokinin-2 receptor (CCK2R) (human, UniProt P32239 1-447)
T1 construct: whole, on cells; also called A431-CCK2R cells
T1 sequence (looked up): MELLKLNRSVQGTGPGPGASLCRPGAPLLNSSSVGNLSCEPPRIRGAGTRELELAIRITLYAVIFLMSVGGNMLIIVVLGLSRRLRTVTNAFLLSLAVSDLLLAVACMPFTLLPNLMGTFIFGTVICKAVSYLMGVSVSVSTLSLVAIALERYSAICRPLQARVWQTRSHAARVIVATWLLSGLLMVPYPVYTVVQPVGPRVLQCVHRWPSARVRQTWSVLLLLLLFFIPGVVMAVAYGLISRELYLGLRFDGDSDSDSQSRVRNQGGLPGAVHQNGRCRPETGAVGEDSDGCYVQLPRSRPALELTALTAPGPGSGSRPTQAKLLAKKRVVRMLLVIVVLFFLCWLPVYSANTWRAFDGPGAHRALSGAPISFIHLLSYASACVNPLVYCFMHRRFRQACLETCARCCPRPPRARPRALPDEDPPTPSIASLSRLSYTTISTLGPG
Assay: displacement of [125I]Tyr12-gastrin-I on A431-CCK2R cells, filter plates, 1 h RT
[ ]: non-standard residue; d: D form. The star is where a group is joined. DOTA = O=C(O)CN1CCN(CC(=O)O)CCN(CC(=O)*)CCN(CC(=O)O)CC1; 1Nal = N[C@@H](Cc1cccc2ccccc12)C(=O)O; 2Nal = N[C@@H](Cc1ccc2ccccc2c1)C(=O)O; NMeF = CN[C@@H](Cc1ccccc1)C(=O)O; NMeNle = CCCC[C@H](NC)C(=O)O; HYNIC = NNc1ccc(C(=O)*)cn1
Observable: pIC50
Numbers only, as −log10 of the molar value.

Some entries whose results are on file:
# Binder, pIC50
measured = [
    ("{DOTA}-[dE]AYGW[NMeNle]D[NMeF]-NH2 (SMILES CCCC[C@@H](C(=O)N[C@@H](CC(=O)O)C(=O)N(C)[C@@H](Cc1ccccc1)C(N)=O)N(C)C(=O)[C@H](Cc1c[nH]c2ccccc12)NC(=O)CNC(=O)[C@H](Cc1ccc(O)cc1)NC(=O)[C@H](C)NC(=O)[C@@H](CCC(=O)O)NC(=O)CN1CCN(CC(=O)O)CCN(CC(=O)O)CCN(CC(=O)O)CC1) [DOTA-MGS4 (DOTA-DGlu-Ala-Tyr-Gly-Trp-(N-Me)Nle-Asp-(N-Me)Phe-NH2)]", 8.92),
    ("{HYNIC}-[dE]AYGW[NMeNle]D[1Nal]-NH2 [HYNIC-MGS5 (HYNIC-DGlu-Ala-Tyr-Gly-Trp-(N-Me)Nle-Asp-1Nal-NH2)]", 8.22),
    ("{DOTA}-[dE]AYGW[NMeNle]D[2Nal]-NH2 (SMILES CCCC[C@@H](C(=O)N[C@@H](CC(=O)O)C(=O)N[C@@H](Cc1ccc2ccccc2c1)C(N)=O)N(C)C(=O)[C@H](Cc1c[nH]c2ccccc12)NC(=O)CNC(=O)[C@H](Cc1ccc(O)cc1)NC(=O)[C@H](C)NC(=O)[C@@H](CCC(=O)O)NC(=O)CN1CCN(CC(=O)O)CCN(CC(=O)O)CCN(CC(=O)O)CC1) [DOTA-MGS5-2 (DOTA-DGlu-Ala-Tyr-Gly-Trp-(N-Me)Nle-Asp-2Nal-NH2)]", 8.80),
]

Hi there! I need pIC50 for each item below, if you can.
1. {DOTA}-[dK]AYGW[NMeNle]D[1Nal]-NH2 (SMILES CCCC[C@@H](C(=O)N[C@@H](CC(=O)O)C(=O)N[C@@H](Cc1cccc2ccccc12)C(N)=O)N(C)C(=O)[C@H](Cc1c[nH]c2ccccc12)NC(=O)CNC(=O)[C@H](Cc1ccc(O)cc1)NC(=O)[C@H](C)NC(=O)[C@@H](CCCCN)NC(=O)CN1CCN(CC(=O)O)CCN(CC(=O)O)CCN(CC(=O)O)CC1) [DOTA-MGS9 (DOTA-DLys-Ala-Tyr-Gly-Trp-(N-Me)Nle-Asp-1Nal-NH2)]
2. {DOTA}-[dE]YPGW[NMeNle]D[1Nal]-NH2 (SMILES CCCC[C@@H](C(=O)N[C@@H](CC(=O)O)C(=O)N[C@@H](Cc1cccc2ccccc12)C(N)=O)N(C)C(=O)[C@H](Cc1c[nH]c2ccccc12)NC(=O)CNC(=O)[C@@H]1CCCN1C(=O)[C@H](Cc1ccc(O)cc1)NC(=O)[C@@H](CCC(=O)O)NC(=O)CN1CCN(CC(=O)O)CCN(CC(=O)O)CCN(CC(=O)O)CC1) [DOTA-MGS10 (DOTA-DGlu-Tyr-Pro-Gly-Trp-(N-Me)Nle-Asp-1Nal-NH2)]
3. {DOTA}-[dE]AYGWMD[1Nal]-NH2 [DOTA-MGS1 (DOTA-DGlu-Ala-Tyr-Gly-Trp-Met-Asp-1Nal-NH2)]
4. {DOTA}-[dE]PYGW[NMeNle]D[1Nal]-NH2 (SMILES CCCC[C@@H](C(=O)N[C@@H](CC(=O)O)C(=O)N[C@@H](Cc1cccc2ccccc12)C(N)=O)N(C)C(=O)[C@H](Cc1c[nH]c2ccccc12)NC(=O)CNC(=O)[C@H](Cc1ccc(O)cc1)NC(=O)[C@@H]1CCCN1C(=O)[C@@H](CCC(=O)O)NC(=O)CN1CCN(CC(=O)O)CCN(CC(=O)O)CCN(CC(=O)O)CC1) [DOTA-MGS8 (DOTA-DGlu-Pro-Tyr-Gly-Trp-(N-Me)Nle-Asp-1Nal-NH2)]

8.74
9.05
8.72
8.80

// provenance: patent US20250019402A1
